assay: qHTS Assay for Lipid Storage Modulators (AID 1519); settings: Drosophila S3 cells, BODIPY lipid droplet/cell ratio, laser cytometry; measured here: cell count channel max response; cells loaded with oleic acid
Inconclusive results are not listed.
observation.type: max response (%)

> print(dat)
                                    compound  unit.annotation  recorded.value
 1  CC(C)C1=CC2=CCC3[C@@](C)(CCC[C@@]3(C)C(=O)O)C2CC1 (stereo not given in full)                %             5.3
 2                       Nc1ccccc1S(N)(=O)=O                %             -21
 3  NC(N)=NCCCC(NC(=O)C(N)Cc1ccc(O)cc1)C(=O)O (stereo not given)                %            20.9
 4  CC(=O)OCC(=O)[C@@]1(O)CC[C@@H]2[C@H]3CCC4=CC(=O)CC[C@]4(C)[C@]3(F)[C@@H](O)C[C@@]21C                %            9.04
 5  CC(=O)OC1CC2C(C)(C)C=CC(=O)[C@@]2(C)C2CC[C@@]3(C)C(c4ccoc4)OC(=O)C4OC43[C@]12C (stereo not given in full)                %           -8.35
 6  O=c1[nH]cnc2c1nc(Cl)n2C1OC(CO)C(O)C1O (stereo not given)                %            5.38
 7  CCO[C@H]1O[C@@H]([C@H](COCc2ccccc2)OCc2ccccc2)[C@@H](OCc2ccccc2)[C@H]1O                %           -8.63
 8  Fc1ccc([C@H]2CCNCC2COc2ccc3c(c2)OCO3)cc1 (stereo not given in full)                %          -0.955
 9  CC(=O)C1CCC2C3CC=C4CC(O)CC[C@@]4(C)C3CC[C@]12C (stereo not given in full)                %            11.3
10  CC1=C(C(=O)O)N2C(=O)C(NC(=O)C(N)c3ccc(O)cc3)C2SC1 (stereo not given)                %             4.8
